Values from paper PMC12040169

Run description: in vitro
Study conditions: human, hela cells, % viability
Measured property: viability at 28.5 h, 10 µM (%)

molecule=Cn1c(=O)oc2cc(S(=O)(=O)Nc3cccc(CCc4ccccn4)c3)ccc21 measured_property="viability at 28.5 h, 10 µM" experimental_value=102
molecule=CCc1nc2ccccc2n1CC(=O)N(CCC#N)Cc1cccnc1 measured_property="viability at 28.5 h, 10 µM" experimental_value=87.7
molecule=COc1ccc(-c2c[nH]c([C@@H]3COCCN3Cc3csnn3)n2)cc1 measured_property="viability at 28.5 h, 10 µM" experimental_value=97.5
molecule=O=S(=O)(c1ccccc1)N1CCC(c2cc3ncccc3[nH]2)CC1 measured_property="viability at 28.5 h, 10 µM" experimental_value=104
molecule=CSc1nnc(CC2CCN(C(=O)c3ccccc3C(C)=O)CC2)n1C measured_property="viability at 28.5 h, 10 µM" experimental_value=111
molecule=CC1CCN(Cc2csc(NC(=O)CCn3c(-c4cccs4)n[nH]c3=S)n2)CC1 measured_property="viability at 28.5 h, 10 µM" experimental_value=92.2
molecule="CCC(C)C(=O)N1CCC(c2nnc3n2CCCCC3)CC1 (centres unmarked)" measured_property="viability at 28.5 h, 10 µM" experimental_value=85.4
molecule=COc1ccc(CN(C)c2c(C)nc3c(OCC(=O)C(C)(C)C)cccn23)cc1 measured_property="viability at 28.5 h, 10 µM" experimental_value=100
molecule=CN(C)c1ccc(C(=O)N2CC[C@@H](CC(=O)O)[C@@H](CC3=NCCc4ccccc43)C2)cc1 measured_property="viability at 28.5 h, 10 µM" experimental_value=94.8
molecule="O=C(NCC1CCCN1)c1cc(C(=O)c2ccc(Cl)cc2Cl)c[nH]1 (centres unmarked) [CBK115923C]" measured_property="viability at 28.5 h, 10 µM" experimental_value=86.1
molecule="CCCn1c(SC(C)C(=O)c2cc(C)n(-c3ccc(Cl)cc3)c2C)n[nH]c1=O (centres unmarked)" measured_property="viability at 28.5 h, 10 µM" experimental_value=86.2
